Values from patent US8486994B2

- assay_remarks: Pharmacokinetics (plasma exposure) after i.v. or p.o. dosing, non-compartmental analysis
- Assay type: in vivo, male Wistar rats
- reported_conditions: male, Wistar, rat, plasma, po, 10 mg/kg, p.o., 10 mg/kg, solid in capsules, read-out: Tmax (converted)
property: Tmax (h)

1) O=C(O)CC/C=C\C[C@@H]1CO[C@H](c2ccccc2Cl)O[C@@H]1c1ccccc1O [drawing 20]	1.5

* * *

- assay_remarks: Pharmacokinetics (plasma exposure) after i.v. or p.o. dosing, non-compartmental analysis
- Type: in vivo, male Wistar rats
- reported_conditions: male, Wistar, rat, plasma, iv, 3.53 mg/kg, i.v., 3.53 mg/kg, DMSO/PEG400 (5%/95%), read-out: Tmax (converted)
property: Tmax (min)

1. COc1ccccc1[C@H]1OC(c2ccccc2Cl)OC[C@H]1C/C=C\CCC(=O)O (stereo partly shown) [drawing 19]	5

* * *

- assay_remarks: Pharmacokinetics (plasma exposure) after i.v. or p.o. dosing, non-compartmental analysis
- Format: in vivo, male Wistar rats
- reported_conditions: male, Wistar, rat, plasma, po, 10 mg/kg, p.o., 10 mg/kg, solid in capsules, read-out: Terminal Half-life elimination, t½z
- Procedure: Animals were fasted overnight before dosing p.o. (gavage or capsule) or by bolus intravenous application. Blood samples (approx. 0.15 ml) were taken at different time points into heparinized tubes by automated blood sampling. Plasma was prepared and stored frozen until bioanalysis. […] The samples were analyzed by mass spectroscopy using ESI (negative ion mode) as the ionization mode. […]
property: half-life

1. O=C(O)CC/C=C\C[C@@H]1CO[C@H](c2ccccc2Cl)O[C@@H]1c1ccccc1O [drawing 20]	1.58 h

* * *

- target_desc: Thromboxane receptor (TP) (Homo sapiens)
- Sequence (P21731 whole entry): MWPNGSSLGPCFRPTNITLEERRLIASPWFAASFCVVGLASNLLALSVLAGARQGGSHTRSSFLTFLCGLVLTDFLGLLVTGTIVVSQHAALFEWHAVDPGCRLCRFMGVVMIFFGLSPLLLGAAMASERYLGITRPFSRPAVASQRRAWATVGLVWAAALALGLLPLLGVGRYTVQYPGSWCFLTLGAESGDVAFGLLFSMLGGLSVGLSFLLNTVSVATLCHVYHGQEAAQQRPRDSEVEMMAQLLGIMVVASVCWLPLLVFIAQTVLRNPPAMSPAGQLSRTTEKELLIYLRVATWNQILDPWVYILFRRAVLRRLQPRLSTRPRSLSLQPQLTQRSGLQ
- assay_remarks: TP Receptor Radioligand Binding ([3H] SQ-29548)
- reported_conditions: Human recombinant HEK-293 cells
- Method: Using these experimental conditions Human recombinant HEK-293 cells, Ligand: 5 nM [^3H] […] The data were transformed to semi-log and then analysed using non-linear regression to a four-parameter dose-response curve Y=Bottom+(Top−Bottom)/(1+10^((Log EC50−X)*HillSlope)) using the log(agonist) vs. response—Variable slope function of GraphPad Prism software (http://graphpad.com/help/prism5/prism5help.html?usingnonlinear_regression_step_by_s.ht m).
property: Ki

1. COc1ccccc1[C@@H]1O[C@H](c2ccccc2Cl)OC[C@@H]1C/C=C\CCC(=O)O [Compound 4]	1220 nM
2. COc1ccccc1[C@H]1O[C@@H](c2ccccc2Cl)OC[C@H]1C/C=C\CCC(=O)O [Compound 5]	15.3 nM
